# systemName: Tyrosyl-tRNA synthetase, putative (Trypanosoma cruzi (strain CL Brener))
# method: Trypanosoma cruzi tyrosyl tRNA synthetase (TcYRS) SOP
# Assay type: functional
# Design: scale not given: direction of the effect not stated beside the values
# testSettings: 30 µM
Criterion: Percent Effect strictly less than 10%. Met: t. Not met: f.

compound	className
COc1ccccc1C(O)CNC(=O)NCc1cccnc1OC (stereo unspecified)	f
CC(O)CNC(=O)NCc1cccnc1OC1CCCC1 (stereo unspecified)	t
O=C(NC1CC1)[C@H]1C[C@@H]2CCN(CCc3ccccc3)C[C@H]2O1	f
CCn1c(NCc2ccco2)nc2c(C)nn(C)c2c1=O	f
CCCN(C(=O)COC)c1nc2c(s1)CCc1c-2cnn1C	t
Cc1nc(C)n(CC2CN(Cc3cccc4c3OCCO4)CCO2)n1 (stereo unspecified)	f

###

Some compounds, each annotated with its measured Percent Effect.
# systemName: AMP-activated protein kinase, AMPK (Homo sapiens) (UniProt P54646+O43741+P54619+Q9UGJ0+Q9Y478+Q13131+Q9UGI9)
# method: AMP-dependent Kinase enzyme assay. An in vitro enzyme assay that detects ADP turnover that is directly proportional to AMPK activity. This uses naive AMPK that is activated during the assay with MK-8722
# Assay type: functional
# Set-up: scale not given: direction of the effect not stated beside the values
# testSettings: 30 µM

compound	Percent Effect / %
CN(CCn1nc2ccccn2c1=O)CC(=O)NC1CC1	7.37
CCc1nccn1C1CCCN(C(=O)c2cn3c(C)cccc3n2)C1 (stereo not drawn)	-0.577
O=S(=O)(C1CC1)N1C[C@H]2CCC[C@@]2(COc2ccccn2)C1	2.3
O=C(CCc1cccnc1)N1CCCC(n2cncn2)C1 (stereo not drawn)	4.67
Cc1ccccc1CSc1nc(N)cc(N2C[C@H](O)[C@@H](N(C)C)C2)n1	-13.8
O=C(NC1CC1)[C@H]1C[C@@H]2CCN(CCc3ccccc3)C[C@H]2O1	9.4
CCn1cnnc1CNC(=O)N(C)Cc1ccc(F)c(F)c1	-11.7
CC(C)(C(=O)NCC1CC1)c1ccccc1F	-4.88
Cc1cc(C)n(-c2cncc(NCCNC(=O)C(C)C)n2)n1	-5.29
CCS(=O)(=O)N1CCc2c(cccc2NC(=O)NCCOC)C1	6.05
Cn1cnc2c1C(COCC1CCOCC1)CN(C(=O)c1ccoc1)C2 (stereo not drawn)	4.82
Cc1nn(C)c2cn(C(C)C(=O)NCc3cccnc3)nc12 (stereo not drawn)	-8.7
CCOc1cccc2c1OCC(C(=O)NS(=O)(=O)Cc1ccccc1)=C2	1.17
CCOc1ccccc1C1CCCN1 (stereo not drawn)	2.38
Cc1cccc(N2CCN(CCCNC(=O)c3nccn3C)CC2)c1	-5.72
Cc1ccc(NC2CCN(C(=O)c3c(C)noc3C)CC2)nn1	0.922
O=C(c1cccnc1)N1C[C@@H]2CC[C@H](C1)N(Cc1cc(F)ccc1F)C2	29.4
COc1ccc(NC(=O)c2ccc[nH]2)c(N2CCN(C(C)=O)CC2)n1	-4.59
Cc1nn(C)c(C)c1CC(=O)N1CCCC(n2ccnc2)C1 (stereo not drawn)	-1.17
O=C(CCc1cccc(F)c1F)N1CCN(Cc2ccco2)CC1	-1.7
Cc1cc(NS(=O)(=O)c2ccccc2F)ccc1-n1cccc1C(=O)O	6.59
CCn1cnnc1C1CCN(C(=O)C(OC)c2ccccc2)CC1 (stereo not drawn)	6.32
CN(Cc1cnn(-c2ccccc2)n1)CC1CCCN1c1cccnn1 (stereo not drawn)	3.24
CC(C(=O)NCCCN1CCCCCC1=O)n1cncn1 (stereo not drawn)	-0.014
Cc1nc(C)n(CC2CCCN2Cc2cscn2)n1 (stereo not drawn)	3.5
CC(C)NC(=O)N1CC[C@@H]2CN(Cc3ccccc3)S(=O)(=O)[C@@H]2CC1	131
Cc1nc(CNC(=O)NCCc2ccc(N(C)C)cc2)cs1	6.12
CC(=O)NCCNC(=O)c1sc(-c2ccc(C)cc2C)nc1C	-0.818
CCc1nnc(CNCC2CCN(CC(O)c3ccccc3)CC2)o1 (stereo not drawn)	-3.87
CC(=O)N1CCC(c2cncc(Oc3ccccc3)n2)CC1	9.22
COc1cccc(CCC(=O)N2CCCC(n3cc(C)cn3)C2)c1 (stereo not drawn)	11.1
CC(=O)N1CCCC1c1nccc(C)n1 (stereo not drawn)	9.75
Cc1nn(CCn2ccnc2-c2cc3n(n2)CCCNC3)c(C)c1Cl	-6.15
O=S(=O)(CCNCc1ccc2c(c1)CCO2)N1CCOCC1	-3.09
O=C(NCc1cc[nH]n1)N1CCCCC(N2CCCC2)C1 (stereo not drawn)	-9.14
Cc1nn(C)c(C)c1C1CCCN1Cc1cccc(C(N)=O)c1 (stereo not drawn)	-3.2
Cc1cc(CN(C)C(=O)NCc2cccc(N3CCCC3=O)c2)no1	-1.15
CCS(=O)(=O)N1CCO[C@H]2[C@H](OCCCn3cccn3)CC[C@@H]21	-2.06
NC(=O)CSCC(=O)N1CCc2cc(Cl)cc(Cl)c2C1	4.28
COc1ncccc1C(=O)N1CCC(CNC(C)=O)CC1	-0.618
COc1c(C2CCCN2C(=O)c2cc(Cl)c[nH]2)c(C)nn1C (stereo not drawn)	4.66
CNc1cc2c(nn1)CCN(C(=O)C1CCCc3ccccc31)C2 (stereo not drawn)	-8.51
CC(C)(C)C(=O)NCCc1ccn(-c2ccccc2)n1	0.882
O=C(CCNc1ncccn1)N1CCCC(n2ccnc2)C1 (stereo not drawn)	7.8
COC(=O)C(NC(=O)COC1CCCC1)c1cc(F)ccc1F (stereo not drawn)	-4.98
CC(C)(C#N)C(=O)N1CCCC(c2cc(C(F)(F)F)[nH]n2)C1 (stereo not drawn)	-6.25
CN(CC1COc2ccccc2O1)C(=O)NCCCn1cncn1 (stereo not drawn)	0.582
COCCOc1ncccc1CNCc1c(C)nn(C)c1N(C)C	-15.1

###

Some molecules, each annotated with its measured Percent Effect.
# systemName: Chromo domain-containing protein 1 (Saccharomyces cerevisiae (strain ATCC 204508 / S288c) (Baker's yeast))
# method: ScCHD-1 Enzyme Inhibition Assay; note: in the data most compounds retested in dose-response had high values
# Assay type: functional
# Set-up: scale not given: direction of the effect not stated beside the values
# testSettings: 30 µM
propertyName: Percent Effect (%)

molecule	propertyName	outputUnit	recordedMeasurement
CC(C)c1nn(C)c(N2CCOCC2)c1CNCC(=O)N(C)C	Percent Effect	%	-5.02
CCC1=N[C@@]2(CC[C@@H]3CN(S(=O)(=O)CC)C[C@@H]32)C(=O)N1CC(C)C	Percent Effect	%	-4.63
CCS(=O)(=O)CCn1ccc(NC(=O)CCc2cccc(C)c2)n1	Percent Effect	%	4.48
COc1ccc(-c2nc(CN3CCCC3Cn3cccn3)no2)cc1 (stereo unspecified)	Percent Effect	%	-11.9
Cc1nc(CN2CCCN(CCOc3cccc(C#N)c3)CC2)no1	Percent Effect	%	-9.28
COc1cccc(N2CCN(C(=O)[C@H](O)C3CCCCC3)CC2=O)c1	Percent Effect	%	-2.64
CCn1nc(C)c(CCNC(=O)C2CCCN(C(=O)N(C)C)C2)c1C (stereo unspecified)	Percent Effect	%	-3.32
O=C(NCc1ccoc1)NC1CCCN(c2ncccn2)C1 (stereo unspecified)	Percent Effect	%	-3.64
CC(C)OCCC(=O)N(C)CCCc1cc(-c2ccccc2)no1	Percent Effect	%	-5.36
COC(=O)CN1CC(c2nc(Cc3ccccc3)no2)C1	Percent Effect	%	-6.9
O=C1NCC[C@]12CN(Cc1ccoc1)C[C@H]2c1ccccc1	Percent Effect	%	-8.29

###

# Species on record: Homo sapiens
# method: To identify inhibition of the IFN signalling (Jak-Stat) pathway via expression of an eGFP reporter gene under the control of an IFN-stimulated response element (ISRE) containing MxA promoter.
# Assay type: functional
# Set-up: scale not given: direction of the effect not stated beside the values
# testSettings: 30 µM
Some compounds, each annotated with its measured Percent Effect.

compound	outputUnit	Percent Effect
COc1c(C2CCCN2C(=O)c2c[nH]c3ncccc23)c(C)nn1C (stereo not drawn)	%	1.49
CN(Cc1ccccn1)C1COC2(CCN(Cc3cccnc3)CC2)C1 (stereo not drawn)	%	17.1
CN(Cc1ccsc1)C(=O)CN1CCOC(Cn2cccn2)C1 (stereo not drawn)	%	19.9
CC(=O)N1CCCN(C(=O)CCc2c(C)noc2C)CC1	%	9.31
Cc1n[nH]c(C)c1NC(=O)CN1CCn2c(nnc2C(C)C)C1	%	-7.56
Cc1cncc(C(=O)N2Cc3ccccc3C3(CCN(C)CC3)C2)c1	%	-17
CCN1CCN(CC(C)(O)c2cccc(C(F)(F)F)c2)CC1 (stereo not drawn)	%	-14.6
CNCC(=O)N1CCC(c2ccnc(Nc3ccc(C)cn3)n2)C1 (stereo not drawn)	%	-13.7
Cc1ccc(S(=O)(=O)N2C[C@@H]3C[C@@H](NC(=O)C(C)(C)C)[C@@H]3C2)cc1	%	2.6
CNc1cc(C2CCCN2Cc2ccccc2OCC(=O)O)ccn1 (stereo not drawn)	%	4.49
CCCS(=O)(=O)NC(C)C(=O)NCc1ccc(N2CCCC2)nc1 (stereo not drawn)	%	5.44
O=C(COc1ccccc1)N1CCC[C@]2(C[C@H](OCC3CC3)CO2)C1	%	3.98
O=C(c1cscn1)N1CCC2(CCN(Cc3nccs3)C2)CC1	%	-17.2
COCCC(=O)N1CCCC2(CCC(=O)N2CCOC)CC1 (stereo not drawn)	%	11.1
O=C(NCC1CC1)C1CCC2(CCN(C(=O)c3ccccn3)CC2)O1 (stereo not drawn)	%	9.93
CCOc1ccnc(N2CCN(C(=O)C(C)(C)C#N)CC2)n1	%	6.24
O=C(NCCNc1ncccn1)N(Cc1ccc(F)cc1F)C1CC1	%	8.99
Cc1[nH]ncc1CCCNC(=O)Nc1ccc(C#N)cc1	%	15.2
Cc1nc(C)n(CC2CN(Cc3cccc4c3OCCO4)CCO2)n1 (stereo not drawn)	%	2.86
Cn1cc(C[C@H]2[C@H](N3CCOCC3)CCN2C(=O)c2ccco2)cn1	%	21.2
CC(=O)NC1CCCN(C(=O)Nc2cnc3c(cnn3C(C)C)c2)C1 (stereo not drawn)	%	5.99
Cc1cccc(NC(=O)NCCCn2nc3ccccn3c2=O)c1C	%	6.71
Cc1cc(C)n(-c2cncc(NCCNC(=O)C(C)C)n2)n1	%	-9.83
